FYI, the data here is from PubChem BioAssay (Tox21).

Assay: qHTS RealTime-Glo MT Cell Viability Assay in HepG2 cells - 8 hour (AID 1224873); further: nearly all actives have a fitted effect of over 55% in size
Conditions: RealTime-Glo luminescence; series mostly up to 76.8 µM
Records with an inconclusive call do not appear. Active and inactive are the calls of the source. The call rests on the fitted dose curve; in most records, active means well fitted cell-killing curve with a large enough effect in the repeat runs; inconclusive means weak or mixed curves; inactive means flat fitted curve, though single readings scatter.
Response enum: yes (1) = active, no (0) = inactive

Challenge: What did the test return for CC(C)NC[C@@H](O)COc1ccc(CC(N)=O)cc1 ?
Response given: no (0)

Challenge: What did the test return for O=C(Oc1ccccc1)Oc1ccccc1 ?
Response given: no (0)

Challenge: What did the test return for Clc1sc(Cl)c(Cl)c1Cl ?
Response given: no (0)

Challenge: What did the test return for CCCNCCC ?
Response given: no (0)

Challenge: What did the test return for CCCC(=O)OCCc1ccccc1 ?
Response given: no (0)

Challenge: What did the test return for OC1CCCc2ccccc21 (stereo not drawn) ?
Response given: no (0)

Challenge: What did the test return for O=c1c(O)c(-c2ccc(O)cc2O)oc2cc(O)cc(O)c12 ?
Response given: no (0)

Challenge: What did the test return for CCc1oc2ccccc2c1C(=O)c1cc(I)c(O)c(I)c1 ?
Response given: no (0)

Challenge: What did the test return for O=C(/C=C/c1ccccc1)OC/C=C/c1ccccc1 ?
Response given: no (0)

Challenge: What did the test return for COc1cccc2c1C(=O)c1c(O)c3c(c(O)c1C2=O)C[C@@](O)(C(C)=O)C[C@@H]3O[C@H]1C[C@H](N)[C@H](O)[C@H](C)O1 ?
Response given: yes (1)

Challenge: What did the test return for CCCCC/C=C\C/C=C\CCCCCCCC(=O)O ?
Response given: no (0)

Challenge: What did the test return for Cc1ccc(O)c(O)c1 ?
Response given: no (0)

Challenge: What did the test return for CCOC(=O)NNc1ccc(N(CC)CC(C)O)nn1 (stereo not drawn) ?
Response given: no (0)

Challenge: What did the test return for CC(=O)c1ccc(C(C)=O)cc1 ?
Response given: no (0)
